Catalogue of cEREG KD (nM)/hEREG KD (nM) values
Study system: T1, cynomolgus EREG (Biacore analyte) (cynomolgus monkey, UniProt O14944 63-108 (human entry), limits assumed)
T1 construct: also called cynomolgus monkey EREG; cEREG
T1 sequence (O14944 other isoform, or with tags, fused parts or gaps limits assumed): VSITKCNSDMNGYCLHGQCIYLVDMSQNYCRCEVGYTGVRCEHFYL
Method description: SPR (Biacore T100), antibody captured on Protein A, EREG as analyte; KD for monkey EREG over KD for human EREG
Give the quantity in ratio, number only.

Bench note: what cEREG KD (nM)/hEREG KD (nM) did H131-G1d/LB-k (antibody, human IgG1, kappa, V domains shown) VH: QDQLVQSGAEVKKPGASVKVSCKASGFNIKDTYIQWVRQAPGQGLEWMGRIDPLRRNTKYREKFEGRVTITADTSTNTAYMELSSLRSEDTAVYYCVRSRTLFDFWGQGTLVTVSS VL: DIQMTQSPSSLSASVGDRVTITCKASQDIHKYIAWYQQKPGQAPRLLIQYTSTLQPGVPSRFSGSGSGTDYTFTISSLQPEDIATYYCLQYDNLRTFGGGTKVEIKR show?
4.7

Bench note: what cEREG KD (nM)/hEREG KD (nM) did H120-G1d/LB-k (antibody, human IgG1, kappa, V domains shown) VH: QDQLVQSGAEVKKPGASVKVSCKASGFNIKDTYIQWVRQAPGQGLEWMGRIDPLRGNTKRREKFEGRVTITADTSTNTAYMELSSLRSEDTAVYYCVRSGTLFDFWGQGTLVTVSS VL: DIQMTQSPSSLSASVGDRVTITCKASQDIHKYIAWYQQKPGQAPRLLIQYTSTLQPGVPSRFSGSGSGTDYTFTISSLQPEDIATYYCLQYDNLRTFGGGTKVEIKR show?
9.1
